System: NCI-H460 tumor-bearing mice (lung cancer)
EXPERIMENT SUMMARY: Biodistribution: lutetium accumulation in tumor, plasma and healthy tissues by ICP-MS
Format: in vivo
EXPERIMENTAL PARAMETERS: second table; liver; 24 h
MEASUREMENT NAME: Liver uptake, % ID/g 24 h (% ID/g)
Expressed in % ID/g, but write only the number.

Observe how each entry below is paired with its result.
1. CCNC(=O)c1nnc(-c2cc(C(C)C)c(O)cc2O)n1-c1ccc(CC2CCN(C(=O)CCOCCOCCOCCOCCOCCOCCOCCOCCOCCOCCOCCOCCNC(=O)CN3CCN4CCN5CCN(CC3)CC(=O)[O][Lu]([O]C(=O)C4)[O]C(=O)C5)CC2)cc1 [CMP34] :: 1.45
2. CCNC(=O)c1nnc(-c2cc(C(C)C)c(O)cc2O)n1-c1ccc(OC2CCN(C(=O)CCOCCOCCOCCOCCNC(=O)[C@H](CCCCNC(=O)CCCc3ccc(I)cc3)NC(=O)CN3CCN4CCN5CCN(CC3)CC(=O)[O][Lu]([O]C(=O)C4)[O]C(=O)C5)CC2)cc1 [CMP6] :: 0.68
3. CCNC(=O)c1nnc(-c2cc(C(C)C)c(O)cc2O)n1-c1ccc(OC2CCN(C(=O)CCNC(=O)[C@@H](CCC(=O)N3CCC(Oc4ccc(-n5c(C(=O)NCC)nnc5-c5cc(C(C)C)c(O)cc5O)cc4)CC3)NC(=O)CCOCCOCCOCCOCCNC(=O)CN3CCN4CCN5CCN(CC3)CC(=O)[O][Lu]([O]C(=O)C4)[O]C(=O)C5)CC2)cc1 [CMP35] :: 17.67

Read the next record carefully.
Ask: Quick one: Liver uptake, % ID/g 24 h of CCNC(=O)c1nnc(-c2cc(C(C)C)c(O)cc2O)n1-c1ccc(CC2CCN(C(=O)C[C@H](NC(=O)CN3CCN4CCN5CCN(CC3)CC(=O)[O][Lu]([O]C(=O)C4)[O]C(=O)C5)C(=O)N[C@H](C)C(=O)N3CCC(Cc4ccc(-n5c(C(=O)NCC)nnc5-c5cc(C(C)C)c(O)cc5O)cc4)CC3)CC2)cc1 [CMP27] ?
Result: 14.98

---

Test system: NCI-H460 tumor-bearing mice (lung cancer)
EXPERIMENT SUMMARY: Biodistribution: lutetium accumulation in tumor, plasma and healthy tissues by ICP-MS
Format: in vivo
EXPERIMENTAL PARAMETERS: 0.5 mg/kg lutetium conjugate; kidney; 24 h
Protocol: Lutetium accumulation was measured in tumor, plasma and healthy tissues of NCI-H460 tumor-bearing mice (lung cancer). NCJ-H460 tumor bearing mice were dosed with 0.5 mg/kg of lutetium conjugates. At the time points indicated, mice were sacrificed and tumor, liver, kidneys and plasma were taken. All tissues were analyzed for lutetium content by ICP-MS, and lutetium uptake in % ID/g determined by the following equation: […]
MEASUREMENT NAME: % ID/g uptake, Kidney, 24 h (% ID/g)
Expressed in % ID/g, but write only the number.

Ask: Quick one: % ID/g uptake, Kidney, 24 h of "CCNC(=O)c1nnc(-c2cc(C(C)C)c(O)cc2O)n1-c1ccc(CN2CCN(C(=O)CCNC(=O)[C@@H](CCC(=O)N3CCN(Cc4ccc(-n5c(C(=O)NCC)nnc5-c5cc(C(C)C)c(O)cc5O)cc4)CC3)NC(=O)CCNC(=O)[C@@H](CCC(=O)O)NC(=O)[C@@H](CCC(=O)O)NC(=O)[C@@H](CCC(=O)O)NC(=O)COCCOCCNC(=O)CNC(=O)[C@H](CCCCN)NC(=O)CNC(=O)CC[C@H](C(=O)O)N3CCN4CCN5CCN(CC3)CC(=O)[O][Lu]([O]C(=O)C5)[O]C(=O)C4)CC2)cc1" ?
Result: 8.15

---

Tested on: NCI-H460 tumor-bearing mice (lung cancer)
EXPERIMENT SUMMARY: Biodistribution: lutetium accumulation in tumor, plasma and healthy tissues by ICP-MS
Type: in vivo
EXPERIMENTAL PARAMETERS: 24 h
Overview of reported T/P (Tumor/Plasma ratio) across a group of molecules:
# print the numeric value only

1. CCNC(=O)c1nnc(-c2cc(C(C)C)c(O)cc2O)n1-c1ccc(OC2CCN(C(=O)CCOCCOCCOCCOCCOCCOCCOCCOCCOCCOCCOCCOCCNC(=O)[C@H](CCCCNC(=O)CCCc3ccc(I)cc3)NC(=O)CN3CCN4CCN5CCN(CC3)CC(=O)[O][Lu]([O]C(=O)C4)[O]C(=O)C5)CC2)cc1 :: 1.42
2. CC(C)c1cc(-c2nnc(O)n2-c2ccc(OC3CCN(C(=O)CCOCCOCCOCCOCCOCCOCCOCCOCCOCCOCCOCCOCCNC(=O)CN4CCN5CCN6CCN(CC4)CC(=O)[O][Lu]([O]C(=O)C5)[O]C(=O)C6)CC3)cc2)c(O)cc1O :: 26.76
3. CCNC(=O)c1nnc(-c2cc(C(C)C)c(O)cc2O)n1-c1ccc(OC2CCN(C(=O)CCOCCOCCOCCOCCOCCOCCOCCOCCOCCOCCOCCOCCNC(=O)CN3CCN4CCN5CCN(CC3)CC(=O)[O][Lu]([O]C(=O)C4)[O]C(=O)C5)CC2)cc1 :: 8.37

Ask: Quick one: T/P (Tumor/Plasma ratio) of CCNC(=O)c1nnc(-c2cc(C(C)C)c(O)cc2O)n1-c1ccc(CN2CCN(C(=O)CCOCCOCCOCCOCCNC(=O)CN3CCN4CCN5CCN6CC(=O)O[C]6(C3)[Lu]([O]C(=O)C4)[O]C(=O)C5)CC2)cc1 (centres unmarked) ?
Result: 7.68

Ask: Quick one: T/P (Tumor/Plasma ratio) of "CCNC(=O)c1nnc(-c2cc(C(C)C)c(O)cc2O)n1-c1ccc(C2CN(C(=O)CCOCCOCCOCCOCCNC(=O)CN3CCN4CCN5CCN(CC3)CC(=O)[O][Lu]([O]C(=O)C4)[O]C(=O)C5)C2)cc1" ?
Result: 4.08

Ask: Quick one: T/P (Tumor/Plasma ratio) of "CCNC(=O)c1nnc(-c2cc(C(C)C)c(O)cc2O)n1-c1ccc(CC2CCN(C(=O)C[C@H](NC(=O)CN3CCN4CCN5CCN(CC3)CC(=O)[O][Lu]([O]C(=O)C4)[O]C(=O)C5)C(=O)N[C@H](C)C(=O)N3CCC(Cc4ccc(-n5c(C(=O)NCC)nnc5-c5cc(C(C)C)c(O)cc5O)cc4)CC3)CC2)cc1" ?
Result: 1.53

Ask: Quick one: T/P (Tumor/Plasma ratio) of CCNC(=O)c1nnc(-c2cc(C(C)C)c(O)cc2O)n1-c1ccc(CN2CCN(C(=O)CCNC(=O)[C@@H](CCC(=O)O)NC(=O)[C@@H](CCC(=O)O)NC(=O)[C@@H](CCC(=O)O)NC(=O)COCCOCCNC(=O)CCCCn3cc(CN(CCCNC(=O)CC[C@H](C(=O)O)N4CCN5CCN6CC(=O)[O][Lu]([O]C(=O)C5)[C]5(C6)OC(=O)CN5CC4)C(=O)CCCNC(=O)CCCc4ccc(I)cc4)nn3)CC2)cc1 (some centres unmarked) ?
Result: 2.5

Ask: Quick one: T/P (Tumor/Plasma ratio) of "CCNC(=O)c1nnc(-c2cc(C(C)C)c(O)cc2O)n1-c1ccc(C2CN(C(=O)CCOCCOCCOCCOCCOCCOCCOCCOCCOCCOCCOCCOCCNC(=O)CN3CCN4CCN5CCN(CC3)CC(=O)[O][Lu]([O]C(=O)C4)[O]C(=O)C5)C2)cc1" ?
Result: 6.81

---

System: NCI-H460 tumor-bearing mice (lung cancer)
EXPERIMENT SUMMARY: Biodistribution: lutetium accumulation in tumor, plasma and healthy tissues by ICP-MS
Type: in vivo
EXPERIMENTAL PARAMETERS: 24 h
MEASUREMENT NAME: T/L (Tumor/Liver ratio)
# print the numeric value only

Ask: Quick one: T/L (Tumor/Liver ratio) of CCNC(=O)c1nnc(-c2cc(C(C)C)c(O)cc2O)n1-c1ccc(CC2CCN(C(=O)CCOCCOCCOCCOCCOCCOCCOCCOCCOCCOCCOCCOCCNC(=O)CN3CCN4CCN5CCN(CC3)CC(=O)[O][Lu]([O]C(=O)C4)[O]C(=O)C5)CC2)cc1 [CMP34] ?
Result: 3.06

---

Overview of reported T/L (Tumor/Liver ratio) across a group of molecules:
System: NCI-H460 tumor-bearing mice (lung cancer)
EXPERIMENT SUMMARY: Biodistribution: lutetium accumulation in tumor, plasma and healthy tissues by ICP-MS
Assay type: in vivo
EXPERIMENTAL PARAMETERS: 24 h
# print the numeric value only

Observe how each entry below is paired with its result.
1. CCNC(=O)c1nnc(-c2cc(C(C)C)c(O)cc2O)n1-c1ccc(CN2CCN(C(=O)C[C@H](NC(=O)CCNC(=O)[C@H](CO)NC(=O)[C@H](CO)NC(=O)[C@H](CO)NC(=O)CC[C@H](C(=O)O)N3CCN4CCN5CCN(CC3)CC(=O)[O][Lu]([O]C(=O)C5)[O]C(=O)C4)C(=O)N[C@H](C)C(=O)N3CCN(Cc4ccc(-n5c(C(=O)NCC)nnc5-c5cc(C(C)C)c(O)cc5O)cc4)CC3)CC2)cc1 [CMP44] :: 2.34
2. CCNC(=O)c1nnc(-c2cc(C(C)C)c(O)cc2O)n1-c1ccc(OC2CCN(C(=O)CCOCCOCCOCCOCCNC(=O)CC[C@@H](C(=O)O)N(CC)CCN3CCN4CCN(C)CC(=O)[O][Lu]([O]C(=O)C4)[O]C(=O)C3)CC2)cc1 [CMP2] :: 1.98
3. CCNC(=O)c1nnc(-c2cc(C(C)C)c(O)cc2O)n1-c1ccc(CC2CCN(C(=O)CCC(=O)N[C@@H](CCCCNC(=O)CN3CCN4CCN5CCN(CC3)CC(=O)[O][Lu]([O]C(=O)C4)[O]C(=O)C5)C(=O)N3CCC(Cc4ccc(-n5c(C(=O)NCC)nnc5-c5cc(C(C)C)c(O)cc5O)cc4)CC3)CC2)cc1 [CMP24] :: 1.07
4. CCNC(=O)c1nnc(-c2cc(C(C)C)c(O)cc2O)n1-c1ccc(CC2CCN(C(=O)C[C@H](NC(=O)CN3CCN4CCN5CCN(CC3)CC(=O)[O][Lu]([O]C(=O)C4)[O]C(=O)C5)C(=O)N[C@H](C)C(=O)N3CCC(Cc4ccc(-n5c(C(=O)NCC)nnc5-c5cc(C(C)C)c(O)cc5O)cc4)CC3)CC2)cc1 [CMP27] :: 0.50
5. CCNC(=O)c1nnc(-c2cc(C(C)C)c(O)cc2O)n1-c1ccc(OC2CCN(C(=O)CCNC(=O)[C@@H](CCC(=O)N3CCC(Oc4ccc(-n5c(C(=O)NCC)nnc5-c5cc(C(C)C)c(O)cc5O)cc4)CC3)NC(=O)CCOCCOCCOCCOCCNC(=O)CN3CCN4CCN5CCN(CC3)CC(=O)[O][Lu]([O]C(=O)C4)[O]C(=O)C5)CC2)cc1 [CMP35] :: 0.50

Ask: Tell me reported T/L (Tumor/Liver ratio) for CC(C)c1cc(-c2nnc(O)n2-c2ccc(OC3CCN(C(=O)CCOCCOCCOCCOCCNC(=O)CN4CCN5CCN6CCN(CC4)CC(=O)[O][Lu]([O]C(=O)C5)[O]C(=O)C6)CC3)cc2)c(O)cc1O [CMP40] , tested with NCI-H460 tumor-bearing mice (lung cancer).
Result: 62.28

Ask: Tell me reported T/L (Tumor/Liver ratio) for CCNC(=O)c1nnc(-c2cc(C(C)C)c(O)cc2O)n1-c1ccc(C2CCN(C(=O)CCOCCOCCOCCOCCNC(=O)CN3CCN4CCN5CCN(CC3)CC(=O)[O][Lu]([O]C(=O)C4)[O]C(=O)C5)CC2)cc1 [CMP30] , tested with NCI-H460 tumor-bearing mice (lung cancer).
Result: 0.62
